# Tested on: U87MG
# testDetails: XTT cell proliferation assay, untransduced U87MG
# Format: cell-based
# particulars: Homo sapiens, U-87 MG, 96-120 hours of drug exposure
attributeMeasured: IC50

Enquiry: Entry under review: Nc1nc(=O)[nH]cc1F . Reported IC50?
Return: 2 to 5 mM
